From: ChEMBL document CHEMBL5291721

- target: Muscarinic acetylcholine receptor M2 (Homo sapiens); further: assay procedure not described here
- Sequence (P08172 whole entry): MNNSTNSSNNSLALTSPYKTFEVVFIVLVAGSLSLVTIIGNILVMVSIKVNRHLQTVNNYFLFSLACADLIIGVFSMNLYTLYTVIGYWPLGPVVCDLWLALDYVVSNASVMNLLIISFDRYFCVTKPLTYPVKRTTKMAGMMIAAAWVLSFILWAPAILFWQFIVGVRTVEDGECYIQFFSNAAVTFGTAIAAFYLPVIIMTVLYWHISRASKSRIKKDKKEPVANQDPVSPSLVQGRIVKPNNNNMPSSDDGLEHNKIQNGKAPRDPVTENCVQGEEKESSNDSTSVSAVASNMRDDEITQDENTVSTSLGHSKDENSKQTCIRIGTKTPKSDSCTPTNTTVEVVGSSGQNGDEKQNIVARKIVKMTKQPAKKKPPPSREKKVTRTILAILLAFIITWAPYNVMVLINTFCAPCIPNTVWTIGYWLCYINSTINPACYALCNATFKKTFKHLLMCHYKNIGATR
- Assay type: functional, cell-based
outcome-measure: AC50

1. Cc1cnc(Nc2ccc(OCCN3CCCC3)cc2)nc1Nc1cccc(S(=O)(=O)NC(C)(C)C)c1    > 10 µM
2. COc1cccc2c1C(=O)c1c(O)c3c(c(O)c1C2=O)C[C@@](O)(C(=O)CO)C[C@@H]3O[C@H]1C[C@H](N)[C@H](O)[C@H](C)O1    > 10 µM
3. Oc1cc(Cl)ccc1Oc1ccc(Cl)cc1Cl    > 30 µM
4. CCOC(=O)C1=C(C)NC(C)=C(C(=O)OC)C1c1cccc(Cl)c1Cl (stereo unspecified)    > 10 µM
5. O=C(O)CCCC[C@@H]1SC[C@@H]2NC(=O)N[C@@H]21    > 10 µM
6. OCC(CO)N[C@H]1C[C@](O)(CO)[C@@H](O)[C@H](O)[C@H]1O    > 30 µM
7. CN(C)CCN(Cc1ccccc1)c1ccccn1    > 10 µM
8. CN(C)CCOC(=O)C(c1ccccc1)C1(O)CCCC1 (stereo unspecified) [CYCLOPENTOLATE]    0.29 µM
9. C[C@]12CCC(=O)C=C1[C@@H]1C[C@@H]1[C@H]1[C@@H]3[C@@H]4C[C@@H]4[C@@]4(CCC(=O)O4)[C@@]3(C)CC[C@@H]12    > 10 µM
10. COc1cc(N)cn[n+]1-c1ccccc1 [AMEZINIUM METILSULFATE]    > 30 µM
11. CC(C)(C)NCC(O)COc1cccc2c1CC(O)C(O)C2 (stereo unspecified)    > 10 µM
12. Cn1cnc2c(F)c(Nc3ccc(Br)cc3F)c(C(=O)NOCCO)cc21    > 30 µM
13. CC(=O)OCC1=C(C(=O)O)N2C(=O)[C@@H](NC(=O)Cc3cccs3)[C@H]2SC1    > 30 µM
14. CN(Cc1ccc(C(C)(C)C)cc1)Cc1cccc2ccccc12    > 10 µM
15. Nc1ccc(S(=O)(=O)Nc2ncccn2)cc1    > 10 µM
16. CCc1ccc(C(=O)C(C)CN2CCCCC2)cc1 (stereo unspecified)    2.2 µM
17. c1cnc2cc3c(cc2n1)[C@@H]1CNC[C@H]3C1    > 30 µM
18. CCC1(CC)C(=O)NC(=O)N(C)C1=O    > 10 µM
19. CCC(=O)[C@@]1(C)[C@H](C)C[C@H]2[C@@H]3CCC4=CC(=O)C=C[C@]4(C)[C@H]3[C@@H](O)C[C@@]21C [RIMEXOLONE]    > 10 µM
20. C[C@]12CCC(=O)C=C1CC[C@H]1[C@@H]3CC[C@](O)(C(=O)CO)[C@@]3(C)C[C@H](O)[C@@]12F    > 30 µM
21. N=C(N)NC(=O)c1nc(Cl)c(N)nc1N [AMILORIDE]    > 30 µM
22. C[C@]12C=CC(=O)C=C1CC[C@@H]1[C@@H]2[C@@H](O)C[C@@]2(C)[C@H]1CC[C@]2(O)C(=O)CO    > 10 µM
23. Nc1nnc(-c2cccc(Cl)c2Cl)c(N)n1    > 10 µM
24. CCN(C(C)=O)c1cccc(-c2ccnc3c(C#N)cnn23)c1    > 10 µM
25. COC(=O)CCc1ccc(OCC(O)CNC(C)C)cc1 (stereo unspecified)    > 30 µM
26. C=C(c1ccccc1OCc1cccc(Cl)c1)n1ccnc1    > 10 µM
27. NCCCNCCSP(=O)(O)O    > 30 µM
28. C=CC1=C(C(=O)O)N2C(=O)[C@@H](NC(=O)/C(=N\O)c3csc(N)n3)[C@H]2SC1    > 10 µM
29. C[C@]12C=CC(=O)C=C1C(Cl)=C[C@@H]1[C@@H]2[C@@H](O)C[C@@]2(C)[C@H]1CC[C@]2(O)C(=O)CO    > 30 µM
30. O=C1CN=C(c2ccccc2Cl)c2cc([N+](=O)[O-])ccc2N1    > 10 µM
31. NCCCCCC(=O)O    > 10 µM
32. O=C(O)c1ccc2nc(-c3cc(Cl)cc(Cl)c3)oc2c1    > 30 µM
33. CC(=O)SCC(Cc1ccccc1)C(=O)NCC(=O)OCc1ccccc1 (stereo unspecified)    > 30 µM
34. CCC[C@@]1(CCc2ccccc2)CC(O)=C([C@H](CC)c2cccc(NS(=O)(=O)c3ccc(C(F)(F)F)cn3)c2)C(=O)O1    6.3 µM
35. N=C(N)NC(=O)Cc1c(Cl)cccc1Cl    > 30 µM
36. O=C(O)[C@H]1/C(=C/CO)O[C@@H]2CC(=O)N21    > 30 µM

* * *

- target: Prostaglandin G/H synthase 1 (Homo sapiens, UniProt P23219); further: assay procedure not described here
- Sequence (P23219 whole entry): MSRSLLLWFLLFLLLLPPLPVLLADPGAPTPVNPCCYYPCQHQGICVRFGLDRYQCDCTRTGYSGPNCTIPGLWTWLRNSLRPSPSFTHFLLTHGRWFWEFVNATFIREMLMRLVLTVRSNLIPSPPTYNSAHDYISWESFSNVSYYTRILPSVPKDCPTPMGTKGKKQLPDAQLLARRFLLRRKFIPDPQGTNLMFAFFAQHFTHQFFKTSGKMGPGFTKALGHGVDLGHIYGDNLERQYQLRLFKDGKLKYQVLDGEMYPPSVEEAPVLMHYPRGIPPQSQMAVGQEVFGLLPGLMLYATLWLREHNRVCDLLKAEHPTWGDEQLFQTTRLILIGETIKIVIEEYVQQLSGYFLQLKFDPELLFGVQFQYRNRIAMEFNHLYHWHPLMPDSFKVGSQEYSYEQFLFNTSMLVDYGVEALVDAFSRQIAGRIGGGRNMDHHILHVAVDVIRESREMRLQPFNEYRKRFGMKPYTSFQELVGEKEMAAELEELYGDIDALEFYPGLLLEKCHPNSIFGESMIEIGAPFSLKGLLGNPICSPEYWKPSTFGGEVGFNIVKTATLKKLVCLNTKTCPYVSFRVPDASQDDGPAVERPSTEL
- Assay type: functional
outcome-measure: AC50

1) CCCCCCCCCCCCCCCC(=O)OC[C@H](COP(=O)([O-])OCC[N+](C)(C)C)OC(=O)CCCCCCCCCCCCCCC [COLFOSCERIL PALMITATE]    > 30 µM
2) CN(C)CCC=C1c2ccccc2CCc2ccccc21 [AMITRIPTYLINE]    > 30 µM
3) COc1cc(C[C@@H]2NCCc3cc(O)c(O)cc32)cc(OC)c1OC [TRETOQUINOL]    5.31 µM
4) Cc1cc(C)cc(OCC2CNC(=O)O2)c1 (stereo unspecified) [METAXALONE]    > 30 µM
5) CN(C)CCCC1(c2ccc(F)cc2)OCc2cc(C#N)ccc21 (stereo unspecified) [CITALOPRAM]    > 30 µM
6) CC(C)(C)NCC(O)COc1ccccc1C#N (stereo unspecified) [BUNITROLOL]    > 30 µM
7) CC(C)=CCC/C(C)=C/CC/C(C)=C/CC/C(C)=C/CC1=C(C)C(=O)c2ccccc2C1=O [MENATETRENONE]    0.78 µM
8) Cc1cccc(C)c1NC(=O)CN(CC(=O)O)CC(=O)O [LIDOFENIN]    > 30 µM
9) COc1cccc2c1C(=O)c1c(O)c3c(c(O)c1C2=O)C[C@@](O)(C(=O)CO)C[C@@H]3O[C@H]1C[C@H](N)[C@H](O)[C@H](C)O1 [DOXORUBICIN]    15.5 µM
10) CN1C(C(=O)Nc2ccccn2)=C(OC(=O)/C=C/c2ccccc2)c2ccccc2S1(=O)=O [PIROXICAM CINNAMATE]    > 30 µM
11) COC(=O)Nc1nc2cc(C(=O)c3ccc(F)cc3)ccc2[nH]1 [FLUBENDAZOLE]    > 30 µM

* * *

Observed AC50 for Adenosine receptor A2a (Homo sapiens, UniProt P29274), reported per entry below.
outcome-measure: AC50

1. C[C@H](Cn1cnc2c(N)ncnc21)OCP(=O)(O)O [TENOFOVIR ANHYDROUS]    > 30 µM
2. CN(C)CCCC1(c2ccc(F)cc2)OCc2cc(C#N)ccc21 (stereo not drawn)    > 30 µM
3. O=C1[C@@H]2[C@H]3CC[C@H](C3)[C@@H]2C(=O)N1C[C@@H]1CCCC[C@H]1CN1CCN(c2nsc3ccccc23)CC1    > 30 µM
4. CCC(=O)O[C@H](CC(=O)O)C[N+](C)(C)C [LEVOCARNITINE PROPIONATE]    > 30 µM
5. CNC1(C)C2CCC(C2)C1(C)C (stereo not drawn)    > 10 µM
6. CCCCCCCC(=O)CC[C@@H]1[C@@H](C/C=C\CCCC(=O)O)[C@@H](O)C[C@H]1O    > 30 µM
7. OCC(O)COc1ccc(Cl)cc1 (stereo not drawn)    > 10 µM
8. CC(=O)NC[C@H]1CN(c2ccc(N3CCOCC3)c(F)c2)C(=O)O1    > 30 µM
9. CCOC(=O)Nc1ccc(NCc2ccc(F)cc2)nc1N    > 30 µM
10. CCC(NC(C)C)C(O)c1ccc(O)c(O)c1 (stereo not drawn)    > 30 µM
11. NCC1(CC(=O)O)CCCCC1    > 30 µM
12. CC1=C(CC(=O)O)c2cc(F)ccc2/C1=C\c1ccc([S+](C)[O-])cc1 (stereo not drawn)    > 30 µM
13. C[C@]12CCC(=O)C=C1CC[C@H]1[C@@H]3CC[C@](O)(C(=O)CO)[C@@]3(C)C[C@H](O)[C@@]12F    > 30 µM
14. Oc1cc(Cl)ccc1Oc1ccc(Cl)cc1Cl    > 30 µM
15. CS(=O)(=O)NC(=O)CCC/C=C\C[C@H]1C(=O)C[C@@H](O)[C@@H]1/C=C/[C@@H](O)COc1ccccc1    > 30 µM
16. CC(=O)[C@@]1(O)CC[C@H]2[C@@H]3C[C@H](C)C4=CC(=O)C=C[C@]4(C)[C@@]3(F)[C@@H](O)C[C@@]21C    > 10 µM
17. COc1cc(N)cn[n+]1-c1ccccc1 [AMEZINIUM METILSULFATE]    > 30 µM
18. COC(=O)c1ccc2c(c1)NC(=O)/C2=C(\Nc1ccc(N(C)C(=O)CN2CCN(C)CC2)cc1)c1ccccc1    21 µM
